Can you tell me viability, T/C for the items I'm about to list?
system: NCI-H1417 complex spheroids, growth % test/control; experiment: Anticancer human tumor NCI-H1417 cell line growth inhibition [Asc]; details: second compound 10 µM; first compound 0.1 µM; stronger effect = lower value;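 note: spheroids exposed to compounds for 7 days; 100% = DMSO vehicle control wells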
Please give a number only; it is taken to be in %.

Req: Check the records and state viability, T/C for O=C(c1cc(Cc2n[nH]c(=O)c3ccccc23)ccc1F)N1CCN(C(=O)C2CC2)CC1 + Cc1c(S(C)(=O)=O)c(-c2cc(F)cc(N3CCN(c4ccc(NS(=O)(=O)c5ccc(NC(CCN6CCC(C(=O)OCCCP(=O)(O)O)CC6)CSc6ccccc6)c(S(=O)(=O)C(F)(F)F)c5)cc4)CC3)c2)c(-c2ccc(Cl)cc2)n1C(C)C
Resp: 2.63

Req: Output measured viability, T/C for this item: NC1CCC(NC2CC2c2ccccc2)CC1 (configuration not stated) + Cc1c(S(C)(=O)=O)c(-c2cc(F)cc(N3CCN(c4ccc(NS(=O)(=O)c5ccc(NC(CCN6CCC(C(=O)OCCCP(=O)(O)O)CC6)CSc6ccccc6)c(S(=O)(=O)C(F)(F)F)c5)cc4)CC3)c2)c(-c2ccc(Cl)cc2)n1C(C)C
Resp: 1.63

Req: State its viability, T/C for this molecule: COc1c(OCCCN2CCOCC2)ccc2c3n(c(=NC(=O)c4cnc(N)nc4)nc12)CCN3 + Cc1c(S(C)(=O)=O)c(-c2cc(F)cc(N3CCN(c4ccc(NS(=O)(=O)c5ccc(NC(CCN6CCC(C(=O)OCCCP(=O)(O)O)CC6)CSc6ccccc6)c(S(=O)(=O)C(F)(F)F)c5)cc4)CC3)c2)c(-c2ccc(Cl)cc2)n1C(C)C
Resp: 0.31

Req: Identify measured viability, T/C associated with CNC(C)C(=O)NC1CN(S(=O)(=O)c2cccc(S(=O)(=O)N3CCC4CCC(C(=O)NC(c5ccccc5)c5ccccc5)N4C(=O)C(NC(=O)C(C)NC)C3)c2)CCC2CCC(C(=O)NC(c3ccccc3)c3ccccc3)N2C1=O (configuration not stated) + Cc1c(S(C)(=O)=O)c(-c2cc(F)cc(N3CCN(c4ccc(NS(=O)(=O)c5ccc(NC(CCN6CCC(C(=O)OCCCP(=O)(O)O)CC6)CSc6ccccc6)c(S(=O)(=O)C(F)(F)F)c5)cc4)CC3)c2)c(-c2ccc(Cl)cc2)n1C(C)C
Resp: 1.45

Req: Using the record for Cn1ncnc1[C@H]1c2n[nH]c(=O)c3cc(F)cc(c23)N[C@@H]1c1ccc(F)cc1 + Cc1c(S(C)(=O)=O)c(-c2cc(F)cc(N3CCN(c4ccc(NS(=O)(=O)c5ccc(NC(CCN6CCC(C(=O)OCCCP(=O)(O)O)CC6)CSc6ccccc6)c(S(=O)(=O)C(F)(F)F)c5)cc4)CC3)c2)c(-c2ccc(Cl)cc2)n1C(C)C , state its measured viability, T/C.
Resp: 2.76

Req: Find the measured viability, T/C of O=C(c1ccc(F)c(F)c1Nc1ccc(I)cc1F)N1CC(O)([C@@H]2CCCCN2)C1 + Cc1c(S(C)(=O)=O)c(-c2cc(F)cc(N3CCN(c4ccc(NS(=O)(=O)c5ccc(NC(CCN6CCC(C(=O)OCCCP(=O)(O)O)CC6)CSc6ccccc6)c(S(=O)(=O)C(F)(F)F)c5)cc4)CC3)c2)c(-c2ccc(Cl)cc2)n1C(C)C and report it.
Resp: 0.9

Req: Read the entry C=C(F)C(=O)N1CCN(c2nc(OCC3CCCN3C)nc3c2CCN(c2cccc4cccc(Cl)c24)C3)CC1CC#N (configuration not stated) + Cc1c(S(C)(=O)=O)c(-c2cc(F)cc(N3CCN(c4ccc(NS(=O)(=O)c5ccc(NC(CCN6CCC(C(=O)OCCCP(=O)(O)O)CC6)CSc6ccccc6)c(S(=O)(=O)C(F)(F)F)c5)cc4)CC3)c2)c(-c2ccc(Cl)cc2)n1C(C)C and write its reported viability, T/C.
Resp: 2.86

###

test system: NCI-H1417 complex spheroids, growth % test/control; test: Anticancer human tumor NCI-H1417 cell line growth inhibition [Asc]; settings: second compound 0.1 µM; first compound 10 µM; stronger effect = lower value;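 note: spheroids exposed to compounds for 7 days; 100% = DMSO vehicle control wells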
For each record, write down the corresponding viability, T/C.
State the answer as a number, implicitly in %.

Req: Read off the recorded viability, T/C for C=C(F)C(=O)N1CCN(c2nc(OCC3CCCN3C)nc3c2CCN(c2cccc4cccc(Cl)c24)C3)CC1CC#N (stereo not drawn) + Cc1c(S(C)(=O)=O)c(-c2cc(F)cc(N3CCN(c4ccc(NS(=O)(=O)c5ccc(NC(CCN6CCC(C(=O)OCCCP(=O)(O)O)CC6)CSc6ccccc6)c(S(=O)(=O)C(F)(F)F)c5)cc4)CC3)c2)c(-c2ccc(Cl)cc2)n1C(C)C
Resp: 0.85

Req: Consider the compound O=C(c1cc(Cc2n[nH]c(=O)c3ccccc23)ccc1F)N1CCN(C(=O)C2CC2)CC1 + CNC(C)C(=O)NC1CN(S(=O)(=O)c2cccc(S(=O)(=O)N3CCC4CCC(C(=O)NC(c5ccccc5)c5ccccc5)N4C(=O)C(NC(=O)C(C)NC)C3)c2)CCC2CCC(C(=O)NC(c3ccccc3)c3ccccc3)N2C1=O and give its recorded viability, T/C.
Resp: 30.9

Req: Please give measured viability, T/C of the following entry: C#Cc1c(F)ccc2cc(O)cc(-c3ncc4c(N5CC6CCC(C5)N6)nc(OCC56CCCN5CC(F)C6)nc4c3F)c12 (stereo not drawn) + CNC(C)C(=O)NC1CN(S(=O)(=O)c2cccc(S(=O)(=O)N3CCC4CCC(C(=O)NC(c5ccccc5)c5ccccc5)N4C(=O)C(NC(=O)C(C)NC)C3)c2)CCC2CCC(C(=O)NC(c3ccccc3)c3ccccc3)N2C1=O
Resp: 69.8

###

system: NCI-H1417 complex spheroids, growth % test/control; test: Anticancer human tumor NCI-H1417 cell line growth inhibition [Asc]; conditions: second compound 10 µM; first compound 1 µM; stronger effect = lower value;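 note: spheroids exposed to compounds for 7 days; 100% = DMSO vehicle control wells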
Provide the recorded viability, T/C for the entries that follow.

Req: Identify the reported viability, T/C for the following entry. O=C(c1cc(Cc2n[nH]c(=O)c3ccccc23)ccc1F)N1CCN(C(=O)C2CC2)CC1 + Cc1c(S(C)(=O)=O)c(-c2cc(F)cc(N3CCN(c4ccc(NS(=O)(=O)c5ccc(NC(CCN6CCC(C(=O)OCCCP(=O)(O)O)CC6)CSc6ccccc6)c(S(=O)(=O)C(F)(F)F)c5)cc4)CC3)c2)c(-c2ccc(Cl)cc2)n1C(C)C
Resp: 1.96%

Req: Specify measured viability, T/C for C=CC(=O)N1CCN(c2nc(=O)n(-c3c(C)ccnc3C(C)C)c3nc(-c4c(O)cccc4F)c(F)cc23)C(C)C1 (stereo not drawn) + Cc1c(S(C)(=O)=O)c(-c2cc(F)cc(N3CCN(c4ccc(NS(=O)(=O)c5ccc(NC(CCN6CCC(C(=O)OCCCP(=O)(O)O)CC6)CSc6ccccc6)c(S(=O)(=O)C(F)(F)F)c5)cc4)CC3)c2)c(-c2ccc(Cl)cc2)n1C(C)C .
Resp: 2.4%

Req: Find the measured viability, T/C of C=C(F)C(=O)N1CCN(c2nc(OCC3CCCN3C)nc3c2CCN(c2cccc4cccc(Cl)c24)C3)CC1CC#N (stereo not drawn) + Cc1c(S(C)(=O)=O)c(-c2cc(F)cc(N3CCN(c4ccc(NS(=O)(=O)c5ccc(NC(CCN6CCC(C(=O)OCCCP(=O)(O)O)CC6)CSc6ccccc6)c(S(=O)(=O)C(F)(F)F)c5)cc4)CC3)c2)c(-c2ccc(Cl)cc2)n1C(C)C and report it.
Resp: 1.29%

###

system: NCI-H1417 complex spheroids, growth % test/control; experiment: Anticancer human tumor NCI-H1417 cell line growth inhibition [Asc]; settings: second compound 0.1 µM; first compound 10 µM; stronger effect = lower value;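 note: spheroids exposed to compounds for 7 days; 100% = DMSO vehicle control wells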
property: viability, T/C

Req: Read the entry C#Cc1c(F)ccc2cc(O)cc(-c3ncc4c(N5CC6CCC(C5)N6)nc(OCC56CCCN5CC(F)C6)nc4c3F)c12 (stereo not given) + Cc1c(S(C)(=O)=O)c(-c2cc(F)cc(N3CCN(c4ccc(NS(=O)(=O)c5ccc(NC(CCN6CCC(C(=O)OCCCP(=O)(O)O)CC6)CSc6ccccc6)c(S(=O)(=O)C(F)(F)F)c5)cc4)CC3)c2)c(-c2ccc(Cl)cc2)n1C(C)C and write its reported viability, T/C.
Resp: 35.7%

Req: Check the records and state viability, T/C for C=CC(=O)N1CCN(c2nc(=O)n(-c3c(C)ccnc3C(C)C)c3nc(-c4c(O)cccc4F)c(F)cc23)C(C)C1 (stereo not given) + Cc1c(S(C)(=O)=O)c(-c2cc(F)cc(N3CCN(c4ccc(NS(=O)(=O)c5ccc(NC(CCN6CCC(C(=O)OCCCP(=O)(O)O)CC6)CSc6ccccc6)c(S(=O)(=O)C(F)(F)F)c5)cc4)CC3)c2)c(-c2ccc(Cl)cc2)n1C(C)C
Resp: 76.5%

Req: For O=C(c1cc(Cc2n[nH]c(=O)c3ccccc23)ccc1F)N1CCN(C(=O)C2CC2)CC1 + Cc1c(S(C)(=O)=O)c(-c2cc(F)cc(N3CCN(c4ccc(NS(=O)(=O)c5ccc(NC(CCN6CCC(C(=O)OCCCP(=O)(O)O)CC6)CSc6ccccc6)c(S(=O)(=O)C(F)(F)F)c5)cc4)CC3)c2)c(-c2ccc(Cl)cc2)n1C(C)C , write its viability, T/C.
Resp: 5.06%

Req: Provide measured viability, T/C value, entry: C=CC(=O)N1CCN(c2nc(=O)n(-c3c(C)ccnc3C(C)C)c3nc(-c4c(O)cccc4F)c(F)cc23)C(C)C1 (stereo not given) + CNC(C)C(=O)NC1CN(S(=O)(=O)c2cccc(S(=O)(=O)N3CCC4CCC(C(=O)NC(c5ccccc5)c5ccccc5)N4C(=O)C(NC(=O)C(C)NC)C3)c2)CCC2CCC(C(=O)NC(c3ccccc3)c3ccccc3)N2C1=O
Resp: 88.2%

Req: Item C=C(F)C(=O)N1CCN(c2nc(OCC3CCCN3C)nc3c2CCN(c2cccc4cccc(Cl)c24)C3)CC1CC#N (stereo not given) + CNC(C)C(=O)NC1CN(S(=O)(=O)c2cccc(S(=O)(=O)N3CCC4CCC(C(=O)NC(c5ccccc5)c5ccccc5)N4C(=O)C(NC(=O)C(C)NC)C3)c2)CCC2CCC(C(=O)NC(c3ccccc3)c3ccccc3)N2C1=O : provide viability, T/C
Resp: 0.2%

Cited source: PubChem BioAssay AID1963440
